System: 2Sp-muMax20 (muMax20 with two 2,6-bis(methyl)pyridine Cys staples)
Test: PBM 8-mer E-score (E-score (rank enrichment, -0.5 to 0.5)); higher = stronger preferential binding
Whole data set: some 33,000 sequences, median “E-score (rank enrichment, -0.5 to 0.5)” near -0.0043, cut for the highest 2% near 0.24. Many of the other results were omitted from the sample, so the highest values are more common in it than they were.
Property measured: PBM 8-mer E-score
Give the figure by itself; no unit, no explanation.

Give PBM 8-mer E-score; test system 2Sp-muMax20 (muMax20 with two 2,6-bis(methyl)pyridine Cys staples); sequence `ACATACGC` 0.0353

Give PBM 8-mer E-score; test system 2Sp-muMax20 (muMax20 with two 2,6-bis(methyl)pyridine Cys staples); sequence `AAATGCTA` 0.251

Give PBM 8-mer E-score; test system 2Sp-muMax20 (muMax20 with two 2,6-bis(methyl)pyridine Cys staples); sequence `GATTTTCC` -0.0716

Give PBM 8-mer E-score; test system 2Sp-muMax20 (muMax20 with two 2,6-bis(methyl)pyridine Cys staples); sequence `TCATATAA` 0.227

Give PBM 8-mer E-score; test system 2Sp-muMax20 (muMax20 with two 2,6-bis(methyl)pyridine Cys staples); sequence `CACATCCA` 0.103

Give PBM 8-mer E-score; test system 2Sp-muMax20 (muMax20 with two 2,6-bis(methyl)pyridine Cys staples); sequence `ATAATACG` 0.177

Give PBM 8-mer E-score; test system 2Sp-muMax20 (muMax20 with two 2,6-bis(methyl)pyridine Cys staples); sequence `AAGTTTCG` 0.0139

Give PBM 8-mer E-score; test system 2Sp-muMax20 (muMax20 with two 2,6-bis(methyl)pyridine Cys staples); sequence `ACATATAG` 0.174

Give PBM 8-mer E-score; test system 2Sp-muMax20 (muMax20 with two 2,6-bis(methyl)pyridine Cys staples); sequence `AAAACATG` 0.24

Give PBM 8-mer E-score; test system 2Sp-muMax20 (muMax20 with two 2,6-bis(methyl)pyridine Cys staples); sequence `ATAATACA` 0.271

Give PBM 8-mer E-score; test system 2Sp-muMax20 (muMax20 with two 2,6-bis(methyl)pyridine Cys staples); sequence `ACATACAG` 0.191

Give PBM 8-mer E-score; test system 2Sp-muMax20 (muMax20 with two 2,6-bis(methyl)pyridine Cys staples); sequence `CGTATGCC` -0.0525

Give PBM 8-mer E-score; test system 2Sp-muMax20 (muMax20 with two 2,6-bis(methyl)pyridine Cys staples); sequence `ACATACAC` 0.0759

Give PBM 8-mer E-score; test system 2Sp-muMax20 (muMax20 with two 2,6-bis(methyl)pyridine Cys staples); sequence `CCTTATTC` -0.0629

Give PBM 8-mer E-score; test system 2Sp-muMax20 (muMax20 with two 2,6-bis(methyl)pyridine Cys staples); sequence `GGAACATA` 0.0521

Give PBM 8-mer E-score; test system 2Sp-muMax20 (muMax20 with two 2,6-bis(methyl)pyridine Cys staples); sequence `GCGCGTGA` 0.208

Give PBM 8-mer E-score; test system 2Sp-muMax20 (muMax20 with two 2,6-bis(methyl)pyridine Cys staples); sequence `GGATGACA` -0.0339

Give PBM 8-mer E-score; test system 2Sp-muMax20 (muMax20 with two 2,6-bis(methyl)pyridine Cys staples); sequence `CAGTACTA` 0.128

Give PBM 8-mer E-score; test system 2Sp-muMax20 (muMax20 with two 2,6-bis(methyl)pyridine Cys staples); sequence `ATACTAAA` 0.145

Give PBM 8-mer E-score; test system 2Sp-muMax20 (muMax20 with two 2,6-bis(methyl)pyridine Cys staples); sequence `CGAGCGAA` 0.0234

Give PBM 8-mer E-score; test system 2Sp-muMax20 (muMax20 with two 2,6-bis(methyl)pyridine Cys staples); sequence `CTCTTCAC` 0.129

Give PBM 8-mer E-score; test system 2Sp-muMax20 (muMax20 with two 2,6-bis(methyl)pyridine Cys staples); sequence `GGGTGAAC` -0.0445

Give PBM 8-mer E-score; test system 2Sp-muMax20 (muMax20 with two 2,6-bis(methyl)pyridine Cys staples); sequence `GAAACATA` 0.254

Give PBM 8-mer E-score; test system 2Sp-muMax20 (muMax20 with two 2,6-bis(methyl)pyridine Cys staples); sequence `AACCGGAA` -0.0983

Give PBM 8-mer E-score; test system 2Sp-muMax20 (muMax20 with two 2,6-bis(methyl)pyridine Cys staples); sequence `GAGAGCAA` -0.127

Give PBM 8-mer E-score; test system 2Sp-muMax20 (muMax20 with two 2,6-bis(methyl)pyridine Cys staples); sequence `CGCGGGAA` 0.0597

Give PBM 8-mer E-score; test system 2Sp-muMax20 (muMax20 with two 2,6-bis(methyl)pyridine Cys staples); sequence `AAAACATA` 0.0989

Give PBM 8-mer E-score; test system 2Sp-muMax20 (muMax20 with two 2,6-bis(methyl)pyridine Cys staples); sequence `CATGCTCG` 0.116

Give PBM 8-mer E-score; test system 2Sp-muMax20 (muMax20 with two 2,6-bis(methyl)pyridine Cys staples); sequence `ATACTACA` 0.258

Give PBM 8-mer E-score; test system 2Sp-muMax20 (muMax20 with two 2,6-bis(methyl)pyridine Cys staples); sequence `ACATATAC` 0.158

Give PBM 8-mer E-score; test system 2Sp-muMax20 (muMax20 with two 2,6-bis(methyl)pyridine Cys staples); sequence `ACGCGTGC` 0.177

Give PBM 8-mer E-score; test system 2Sp-muMax20 (muMax20 with two 2,6-bis(methyl)pyridine Cys staples); sequence `ACCAAGAC` -0.0903

Give PBM 8-mer E-score; test system 2Sp-muMax20 (muMax20 with two 2,6-bis(methyl)pyridine Cys staples); sequence `GCTTATTA` 0.172

Give PBM 8-mer E-score; test system 2Sp-muMax20 (muMax20 with two 2,6-bis(methyl)pyridine Cys staples); sequence `GGTAAGAC` -0.0928

Give PBM 8-mer E-score; test system 2Sp-muMax20 (muMax20 with two 2,6-bis(methyl)pyridine Cys staples); sequence `ATTCTACA` 0.253

Give PBM 8-mer E-score; test system 2Sp-muMax20 (muMax20 with two 2,6-bis(methyl)pyridine Cys staples); sequence `GAATGCTA` -0.14

Give PBM 8-mer E-score; test system 2Sp-muMax20 (muMax20 with two 2,6-bis(methyl)pyridine Cys staples); sequence `ATGGTCAG` 0.122

Give PBM 8-mer E-score; test system 2Sp-muMax20 (muMax20 with two 2,6-bis(methyl)pyridine Cys staples); sequence `CGAACATC` 0.00373

Give PBM 8-mer E-score; test system 2Sp-muMax20 (muMax20 with two 2,6-bis(methyl)pyridine Cys staples); sequence `CTTCGAAC` -0.115

Give PBM 8-mer E-score; test system 2Sp-muMax20 (muMax20 with two 2,6-bis(methyl)pyridine Cys staples); sequence `CTCCTGCC` 0.0184

Give PBM 8-mer E-score; test system 2Sp-muMax20 (muMax20 with two 2,6-bis(methyl)pyridine Cys staples); sequence `AGGGCGAA` -0.00371

Give PBM 8-mer E-score; test system 2Sp-muMax20 (muMax20 with two 2,6-bis(methyl)pyridine Cys staples); sequence `ACTTTCCG` 0.00749

Give PBM 8-mer E-score; test system 2Sp-muMax20 (muMax20 with two 2,6-bis(methyl)pyridine Cys staples); sequence `AAACGTGT` 0.077

Give PBM 8-mer E-score; test system 2Sp-muMax20 (muMax20 with two 2,6-bis(methyl)pyridine Cys staples); sequence `AGGAGCCC` 0.00737

Give PBM 8-mer E-score; test system 2Sp-muMax20 (muMax20 with two 2,6-bis(methyl)pyridine Cys staples); sequence `ACATATAA` 0.333

Give PBM 8-mer E-score; test system 2Sp-muMax20 (muMax20 with two 2,6-bis(methyl)pyridine Cys staples); sequence `AAATGCTG` 0.0946

src = the supplement of paper PMC12636033
